Parameter viscosity: see the listing below.
Test: xn = mol fraction of the nth substance listed
Details: 288.15 K; 100 kPa; Liquid; Cone and plate viscometry; x1 = 0.1
Just the number please, in mPa·s, no unit attached.

The cases that follow already have their viscosity on record.
compound	viscosity / mPa·s
CCCCCCCCCCCCCC[P+](CCCCCC)(CCCCCC)CCCCCC.N#Cc1ccc[n-]1 [trihexyl(tetradecyl)phosphonium 2-cyanopyrrolide] + CCCCCC[n+]1ccn(C)c1.O=S(=O)([N-]S(=O)(=O)C(F)(F)F)C(F)(F)F	176
CCCCCCn1cc[n+](C)c1.O=[N+]([O-])c1cn[n-]c1 [1-hexyl-3-methylimidazolium 4-nitropyrazolide] + CCCCCCCC[P+](CC)(CC)CC.O=S(=O)([N-]S(=O)(=O)C(F)(F)F)C(F)(F)F	205
CCCCCCCCCC[P+](CC)(CC)CC.O=[N+]([O-])c1cn[n-]c1 [decyltriethylphosphonium 4-nitropyrazolide] + CC[P+](CC)(CC)COCCOC.O=S(=O)([N-]S(=O)(=O)C(F)(F)F)C(F)(F)F	62
CCCCCCn1cc[n+](C)c1.N#Cc1ccc[n-]1 [1-hexyl-3-methylimidazolium 2-cyanopyrrolide] + CCCCCCCCCCCCCC[P+](CCCCCC)(CCCCCC)CCCCCC.O=S(=O)([N-]S(=O)(=O)C(F)(F)F)C(F)(F)F	568

Now let's try a different one.
stdin: Reported viscosity for CCCCCCCCCCCCCC[P+](CCCCCC)(CCCCCC)CCCCCC.N#Cc1ccc[n-]1 [trihexyl(tetradecyl)phosphonium 2-cyanopyrrolide] + CCCCCCn1cc[n+](C)c1C.O=S(=O)([N-]S(=O)(=O)C(F)(F)F)C(F)(F)F : what is it?
stdout: 328
